- measurementNotes: Toxicity in Artemia (brine shrimps) larvae
- Type: organism-based
- assayConditions: in vivo
parameter: LC50
A complete answer gives the number followed by the unit.

Would you mind telling me what LC50 value was observed for `C/C=C/C=C/C#C/C=C\CCCCCCCCC(=O)O` ?
20 µg/mL
